Source: ChEMBL document CHEMBL2157941

- Tested on: Aspergillus clavatus
- test_details: Antifungal activity against Aspergillus clavatus MTCC 1323 after 48 hrs by serial broth dilution method
- Assay type: functional
- experimental_context: MTCC 1323, 48 h
So I've got a bunch of compounds here, and I need their MIC values.
Answers are plain numbers, in µg/mL.

Reference set, count: 6
# compound, measure_name, result_unit, meas_value
rows = [
    ("O=C(CN1CCOCC1)Nc1nc(-c2ccccc2[N+](=O)[O-])cc(-c2cc3cc(F)ccc3nc2Cl)n1", "MIC", "µg/mL", 100),
    ("O=C1CSC(N2N=C(c3ccccc3[N+](=O)[O-])CC2c2cc3cc(F)ccc3nc2Cl)=N1 (centres undefined)", "MIC", "µg/mL", 12.5),
    ("O=C1CSC(N2N=C(c3ccccc3)CC2c2cc3cc(F)ccc3nc2Cl)=N1 (centres undefined)", "MIC", "µg/mL", 500),
    ("O=C(CN1CCOCC1)Nc1nc(-c2ccccc2)cc(-c2cc3cc(F)ccc3nc2Cl)n1", "MIC", "µg/mL", 250),
    ("O=C(CN1CCOCC1)Nc1nc(-c2ccccc2F)cc(-c2cc3cc(F)ccc3nc2Cl)n1", "MIC", "µg/mL", 25),
    ("COc1ccc(-c2cc(-c3cc4cc(F)ccc4nc3Cl)nc(NC(=O)CN3CCOCC3)n2)cc1", "MIC", "µg/mL", 500),
]

I'm hoping you can list MIC for every compound here, please.
1. O=C1CSC(N2N=C(c3ccc(F)cc3)CC2c2cc3cc(F)ccc3nc2Cl)=N1 (centres undefined)
2. O=C1CSC(N2N=C(c3ccccc3F)CC2c2cc3cc(F)ccc3nc2Cl)=N1 (centres undefined)
3. O=C1CSC(N2N=C(c3ccccc3O)CC2c2cc3cc(F)ccc3nc2Cl)=N1 (centres undefined)

1: 100; 2: 500; 3: 1000

---

So I've got a bunch of compounds here, and I need their MIC values.
- Test system: Aspergillus clavatus
- test_details: Antifungal activity against Aspergillus clavatus MTCC 1323 after 48 hrs by serial broth dilution method
- Type: functional
- experimental_context: MTCC 1323, 48 h

Reference set, count: 5
# compound, meas_value
measured = [
    ("O=C(CN1CCOCC1)Nc1nc(-c2cccc([N+](=O)[O-])c2)cc(-c2cc3cc(F)ccc3nc2Cl)n1", "500 µg/mL"),
    ("O=C(CN1CCOCC1)Nc1nc(-c2cccc(F)c2)cc(-c2cc3cc(F)ccc3nc2Cl)n1", "250 µg/mL"),
    ("O=C(CN1CCOCC1)Nc1nc(-c2ccc([N+](=O)[O-])cc2)cc(-c2cc3cc(F)ccc3nc2Cl)n1", "50 µg/mL"),
    ("O=C1CSC(N2N=C(c3ccc(Cl)cc3)CC2c2cc3cc(F)ccc3nc2Cl)=N1 (stereo unspecified)", "100 µg/mL"),
    ("O=C1CSC(N2N=C(c3ccccc3Cl)CC2c2cc3cc(F)ccc3nc2Cl)=N1 (stereo unspecified)", "50 µg/mL"),
]

Consider now this further compound.
Please look up its MIC: O=C1CSC(N2N=C(c3ccc([N+](=O)[O-])cc3)CC2c2cc3cc(F)ccc3nc2Cl)=N1 (stereo unspecified)
100 µg/mL

---

- Tested on: Aspergillus clavatus
- test_details: Antifungal activity against Aspergillus clavatus MTCC 1323 after 48 hrs by serial broth dilution method
- Type: functional
- experimental_context: MTCC 1323, 48 h
measure_name: MIC (µg/mL)
Give bare numbers, in µg/mL.

Reference set, count: 6
# molecule, target_of_assay, measure_name, result_unit, meas_value
records = [
    ("COC1=CC(=O)C[C@@H](C)[C@]12Oc1c(Cl)c(OC)cc(OC)c1C2=O", "Aspergillus clavatus", "MIC", "µg/mL", 100),
    ("O=C(CN1CCOCC1)Nc1nc(-c2ccccc2Cl)cc(-c2cc3cc(F)ccc3nc2Cl)n1", "Aspergillus clavatus", "MIC", "µg/mL", 100),
    ("O=C1CSC(N2N=C(c3cccc([N+](=O)[O-])c3)CC2c2cc3cc(F)ccc3nc2Cl)=N1 (stereo not given)", "Aspergillus clavatus", "MIC", "µg/mL", 50),
    ("O=C(CN1CCOCC1)Nc1nc(-c2ccc(O)cc2)cc(-c2cc3cc(F)ccc3nc2Cl)n1", "Aspergillus clavatus", "MIC", "µg/mL", 1000),
    ("O=C1CSC(N2N=C(c3cccc(F)c3)CC2c2cc3cc(F)ccc3nc2Cl)=N1 (stereo not given)", "Aspergillus clavatus", "MIC", "µg/mL", 500),
    ("COc1ccc(C2=NN(C3=NC(=O)CS3)C(c3cc4cc(F)ccc4nc3Cl)C2)cc1 (stereo not given)", "Aspergillus clavatus", "MIC", "µg/mL", 500),
]

I'm hoping you can list MIC for every molecule here, please.
1. O=C(CN1CCOCC1)Nc1nc(-c2ccc(Cl)cc2)cc(-c2cc3cc(F)ccc3nc2Cl)n1
2. O=C1CSC(N2N=C(c3ccc(O)cc3)CC2c2cc3cc(F)ccc3nc2Cl)=N1 (stereo not given)
3. O=C(CN1CCOCC1)Nc1nc(-c2ccccc2O)cc(-c2cc3cc(F)ccc3nc2Cl)n1
4. O=C(CN1CCOCC1)Nc1nc(-c2ccc(F)cc2)cc(-c2cc3cc(F)ccc3nc2Cl)n1

1: 100; 2: 1000; 3: 500; 4: 100
